Test: Tanguay_ZF_120hpf_ActivityScore_legacy: (Legacy) Oregon State University Tanguay Lab 120 Hour Post-fertilization zebrafish Assay Score for Activity (AID 2283742)
Activity calls are given as the source filed them. Rule for the calls: active = hit-call score of the fitted dose curve at least 0.9, where 1 is the maximum; inconclusive = response in the unintended direction; inactive = score below 0.9.
Response enum: label 1 (active), label 0 (inactive)

Worked cases, answers included:
{"columns": ["Compound", "Answer Label"],
 "data": [
  ["C#CC(C)(C)NC(=O)c1cc(Cl)cc(Cl)c1", "label 0"],
  ["CCOP(=S)(OCC)Oc1cc(C)nc(C(C)C)n1", "label 0"]
]}

Outcome logged for `Nc1c(Cl)cc([N+](=O)[O-])cc1Cl` in this assay:
label 1

Outcome logged for `O=C(O)c1cc(Oc2ccc(C(F)(F)F)cc2Cl)ccc1[N+](=O)[O-]` in this assay:
label 0

Outcome logged for CCOP(=O)(SC(C)CC)N1CCSC1=O (configuration not stated) in this assay:
label 0

Outcome logged for `CCNc1nc(Cl)nc(NC(C)(C)C#N)n1` in this assay:
label 0

---

Tested On: human Esterase Plasma (ES), BCHE (gene 590)
Test: NVS_ENZ_hES: NovaScreen (NVS) Enzymatic Assay for human Esterase Plasma (ES) (AID 2283157)
Results filed as inconclusive are left out. The source made the active and inactive calls. Rule for the calls: active = hit-call score of the fitted dose curve at least 0.9, where 1 is the maximum; inconclusive = response in the unintended direction; inactive = score below 0.9.
Response enum: active, inactive

Worked cases, answers included:
{"columns": ["Compound", "Answer Label"],
 "data": [
  ["CN(C)[C@@H]1C(=O)C(C(N)=O)=C(O)[C@@]2(O)C(=O)C3=C(O)c4c(O)cccc4[C@@](C)(O)[C@H]3[C@H](O)[C@@H]12", "inactive"],
  ["CCCSP(=O)(OCC)Oc1ccc(Br)cc1Cl (stereo unspecified)", "active"],
  ["COP(=O)(OC)SCn1c(=O)oc2cc(Cl)cnc21", "active"],
  ["COP(=O)(OC)OC(Br)C(Cl)(Cl)Br (stereo unspecified)", "active"],
  ["CCOP(=S)(OCC)Oc1ccc([N+](=O)[O-])cc1", "active"]
]}

# next compound below
Outcome logged for `CNC(=O)ON=C(SC)C(=O)N(C)C` in this assay:
active

---

Test: BSK_SAg_Proliferation: Cell Proliferation Assessment in the BioMAP Diversity Plus: SAg Assay (AID 2283095);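 note: relative cell number as total protein by SRB absorbance in sub-confluent culture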
Applied Conditions: primary human HUVEC with PBMC
Calls of active or inactive are those of the source. Rule for the calls: active = hit-call score of the fitted dose curve at least 0.9, where 1 is the maximum; inactive = score below 0.9.
Reported Endpoint: AC50

Reference set, count: 10
{"columns": ["Compound", "Result"],
 "data": [
  ["CNC(=O)Oc1cccc2c1OC(C)(C)O2", "20 µM (active)"],
  ["CCOP(=O)(OCC)Oc1cc(C)nc(C(C)C)n1", "inactive"],
  ["CCc1cccc(CC)c1N(COC)C(=O)CCl", "23.6 µM (active)"],
  ["CN(C)[C@@H]1C(=O)C(C(N)=O)=C(O)[C@@]2(O)C(=O)C3=C(O)c4c(O)cccc4[C@@](C)(O)[C@H]3[C@H](O)[C@@H]12", "inactive"],
  ["COc1ccc(C(=CC(=O)N2CCOCC2)c2ccc(Cl)cc2)cc1OC", "12.9 µM (active)"],
  ["CON=C(C(=O)OC)c1ccccc1CON=C(C)c1cccc(C(F)(F)F)c1", "3.9 µM (active)"],
  ["C[N+]1(C)CCCCC1", "inactive"],
  ["CCOP(=S)(Oc1cnc(C(C)(C)C)nc1)OC(C)C (configuration not stated)", "36.6 µM (active)"],
  ["CC(C)[C@H](C(=O)O[C@H](C#N)c1cccc(Oc2ccccc2)c1)c1ccc(Cl)cc1", "12 µM (active)"],
  ["S=C1NCCN1", "inactive"]
]}

For each of the compounds below, note its AC50.
1. C=C(C)[C@H]1Cc2c(ccc3c2O[C@@H]2COc4cc(OC)c(OC)cc4[C@@H]2C3=O)O1
2. CSc1nnc(C(C)(C)C)c(=O)n1N

1. 5.57 µM (active)
2. inactive
